Reported Relative Selectivity values for a set of compounds
target: CtHtrA (Chlamydia trachomatis serovar D, UniProt P18584); construct: made in house; host or cells: E. coli BL21(DE3), pET22b; experiment: CtHtrA protease inhibition assay; format: biochemical; settings: (relative CtHtrA potency)/(relative HLE potency)
Sequence (P18584 17-497): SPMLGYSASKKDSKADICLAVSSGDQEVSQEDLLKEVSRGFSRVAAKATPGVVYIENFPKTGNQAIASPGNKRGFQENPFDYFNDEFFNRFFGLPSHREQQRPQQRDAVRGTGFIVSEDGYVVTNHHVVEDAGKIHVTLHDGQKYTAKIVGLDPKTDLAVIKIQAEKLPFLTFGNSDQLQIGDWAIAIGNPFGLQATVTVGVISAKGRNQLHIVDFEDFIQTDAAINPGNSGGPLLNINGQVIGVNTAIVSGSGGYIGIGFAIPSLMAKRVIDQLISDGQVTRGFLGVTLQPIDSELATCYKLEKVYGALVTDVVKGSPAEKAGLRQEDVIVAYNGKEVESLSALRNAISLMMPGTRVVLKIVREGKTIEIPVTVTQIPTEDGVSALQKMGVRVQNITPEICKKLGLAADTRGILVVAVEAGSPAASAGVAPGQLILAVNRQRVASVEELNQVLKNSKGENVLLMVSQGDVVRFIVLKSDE
// return a plain number; no unit text

# annotated cases, reported Relative Selectivity shown
> print(dat)
                                   compound                     target.or.test.system        endpoint.label  reported.measurement
1  COc1oc(=O)c2ccccc2c1Cl [Compound 2a, 3-Methoxy-4-chloroisocoumarin]  CtHtrA (Chlamydia trachomatis serovar D, UniProt P18584)  Relative Selectivity                 113.0
2  CC(C)COc1oc(=O)c2ccccc2c1Cl [Compound 2f, 3-iso-Butoxy-4-chloroisocoumarin]  CtHtrA (Chlamydia trachomatis serovar D, UniProt P18584)  Relative Selectivity                  4.08
3  CCCCOc1oc(=O)c2ccccc2c1Cl [Compound 2d, 3-Butoxy-4-chloroisocoumarin]  CtHtrA (Chlamydia trachomatis serovar D, UniProt P18584)  Relative Selectivity                  5.08

With those in mind, consider the next compound.
Per the records, this compound ( CC(C)Oc1oc(=O)c2ccccc2c1Cl [Compound 2e, 3-iso-Propoxy-4-chloroisocoumarin] ) has Relative Selectivity equal to 12.7

----------
target: CtHtrA (Chlamydia trachomatis serovar D, UniProt P18584); construct: made in house; host or cells: E. coli BL21(DE3), pET22b; assay: CtHtrA protease inhibition assay; format: biochemical; details: IC50 against CtHtrA, Table S2, Batch 3; control 2g
Here the recorded IC50 is given for each entry.
Number in µM, nothing else.

// known answers, use as guide
> print(dat)
                                   molecule  reported.measurement
1  CCC(C)Oc1oc(=O)c2ccccc2c1Cl (racemic) [Compound 2g, (±)-3-sec-Butoxy-4-chloroisocoumarin]                  34.9
2  CCC(C)Oc1oc(=O)c2cc(N)ccc2c1Cl (racemic)                   107
3  CCC(C)Oc1oc(=O)c2cc(NC(C)=O)ccc2c1Cl (racemic)                   221

Let's switch to this molecule now.
Noted for CCC(C)Oc1oc(=O)c2cc(N(C)C)ccc2c1Cl (racemic) : its IC50 reads 309

----------
Quick reference for Relative Potency against HLE among some compounds
target: Human Leukocyte Elastase (HLE) (Homo sapiens); construct: purchased Athens Research and Technology 16-15-051200; test: HLE protease inhibition assay; format: biochemical; settings: [IC50 of JO146]/[IC50 test compound]
Sequence (P08246 30-247 limits assumed): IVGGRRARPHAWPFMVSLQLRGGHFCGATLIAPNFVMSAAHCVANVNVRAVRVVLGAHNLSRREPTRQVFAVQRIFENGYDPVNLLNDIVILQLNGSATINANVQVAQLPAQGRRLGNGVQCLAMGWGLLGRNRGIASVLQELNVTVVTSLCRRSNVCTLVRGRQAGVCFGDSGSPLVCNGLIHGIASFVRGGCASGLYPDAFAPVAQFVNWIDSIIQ
Answer using only a numeral; do not append any unit.

Compound	Target Or Test System	Relative Potency against HLE
CC(C)[C@H](NC(=O)OC(C)(C)C)C(=O)N1CCCC1C(=O)N[C@@H](C(C)C)P(=O)(Oc1ccccc1)Oc1ccccc1 (some centres unmarked) [JO146, reference compound]	Human Leukocyte Elastase (HLE) (Homo sapiens)	1.00

Short answer for CC(C)COc1oc(=O)c2ccccc2c1Cl [Compound 2f, 3-iso-Butoxy-4-chloroisocoumarin] : Relative Potency against HLE was 0.368

For record CCC(C)Oc1oc(=O)c2ccccc2c1Cl (racemic) [Compound 2g, (±)-3-sec-Butoxy-4-chloroisocoumarin] the listed Relative Potency against HLE is 0.451

Looking up CC(C)Oc1oc(=O)c2ccccc2c1Cl [Compound 2e, 3-iso-Propoxy-4-chloroisocoumarin] , I see its Relative Potency against HLE listed as 0.419

Short answer for CCCCOc1oc(=O)c2ccccc2c1Cl [Compound 2d, 3-Butoxy-4-chloroisocoumarin] : Relative Potency against HLE was 0.310

Record COc1oc(=O)c2ccccc2c1Cl [Compound 2a, 3-Methoxy-4-chloroisocoumarin] . Reported Relative Potency against HLE: 0.0207

Form field Relative Potency against HLE, entry CCOc1oc(=O)c2ccccc2c1Cl [Compound 2b, 3-Ethoxy-4-chloroisocoumarin] : 0.0664

Measured Relative Potency against HLE, CCCOc1oc(=O)c2ccccc2c1Cl [Compound 2c, 3-Propoxy-4-chloroisocoumarin] : 0.323

----------
Below, each entry is listed alongside its reported Relative Potency against CtHtrA.
biological target: CtHtrA (Chlamydia trachomatis serovar D, UniProt P18584); construct: made in house; host or cells: E. coli BL21(DE3), pET22b; assay: CtHtrA protease inhibition assay; format: biochemical; conditions: [IC50 of control]/[IC50 test compound]; control 2g
Keep it simple and answer with nothing but the number.

Known Relative Potency against CtHtrA results, listed for orientation:
> print(dat)
                                   molecule                     target.or.test.system  reported.measurement
1  CCC(C)Oc1oc(=O)c2cc(N(C)C)ccc2c1Cl (racemic) [Compound 6b]  CtHtrA (Chlamydia trachomatis serovar D, UniProt P18584)                 0.113
2  CCC(C)Oc1oc(=O)c2cc(Br)ccc2c1Cl (racemic) [Compound 6f]  CtHtrA (Chlamydia trachomatis serovar D, UniProt P18584)                 0.057
3  CCC(C)Oc1oc(=O)c2cc(Cl)ccc2c1Cl (racemic) [Compound 6g]  CtHtrA (Chlamydia trachomatis serovar D, UniProt P18584)                 0.390
4  CCC(C)Oc1oc(=O)c2cc(OC)ccc2c1Cl (racemic) [Compound 6h]  CtHtrA (Chlamydia trachomatis serovar D, UniProt P18584)                 0.184
5  CCC(C)Oc1oc(=O)c2cc(N)ccc2c1Cl (racemic) [Compound 6a]  CtHtrA (Chlamydia trachomatis serovar D, UniProt P18584)                 0.326

Now, please, on to the next molecule.
Entry CCC(C)Oc1oc(=O)c2cc(NC(C)=O)ccc2c1Cl (racemic) [Compound 6c] under CtHtrA (Chlamydia trachomatis serovar D, UniProt P18584) had Relative Potency against CtHtrA of 0.158
